The reported measurements were obtained from ChEMBL document CHEMBL1145041.

target: Phosphodiesterase 4 (Homo sapiens, UniProt P27815+Q08499+Q07343+Q08493); test: inhibition of cAMP-specific phosphodiesterase 4 (PDE4) was determined in cytosol from human neutrophils; assay type: protein assay
This section presents compounds with their documented Log IC50 values.
value kind: Log IC50

[
  {
    "compound": "COc1ccc(C2=NN(c3ccc(C4=NNC(=O)CC4C)cc3)C(=O)C3CC=CCC23)cc1OC1CCCC1 (centres undefined)",
    "value": -7.8
  },
  {
    "compound": "COc1ccc(C2=NN(CCCCC(=O)Nc3ccc(C4=NNC(=O)CC4C)cc3)C(=O)C3CC=CCC23)cc1OC (centres undefined)",
    "value": -8.2
  },
  {
    "compound": "COc1ccc(C2=NN(c3ccccc3)C(=O)C3CC=CCC23)cc1OC1CCCC1 (centres undefined)",
    "value": -7.8
  },
  {
    "compound": "CCOc1ccc(C2=NN(c3ccccc3)C(=O)C3CC=CCC23)cc1OCC (centres undefined)",
    "value": -7.7
  },
  {
    "compound": "COc1ccc(C2=NN(CCCCOc3ccc(C4=NNC(=O)CC4C)cc3)C(=O)C3CC=CCC23)cc1Cl (centres undefined)",
    "value": -7.8
  },
  {
    "compound": "CCOc1ccc(C2=NN(CCCCOc3ccc(C4=NNC(=O)CC4C)cc3)C(=O)C3CC=CCC23)cc1OCC (centres undefined)",
    "value": -8.6
  },
  {
    "compound": "COc1ccc(C2=NN(c3ccc(C4=NNC(=O)CC4C)cc3)C(=O)C3CC=CCC23)cc1OC (centres undefined)",
    "value": -8.4
  },
  {
    "compound": "COc1ccc(C2=NN(CC(=O)Nc3cccc(C4=NNC(=O)CC4C)c3)C(=O)C3CC=CCC23)cc1OC (centres undefined)",
    "value": -8.4
  },
  {
    "compound": "COc1ccc(C2=NN(c3ccc(-c4ccc(O)nn4)cc3)C(=O)C3CC=CCC23)cc1OC (centres undefined)",
    "value": -8.1
  }
]
